// provenance: patent US10233184B2

- System name: human TLR7 (Homo sapiens, UniProt Q9NYK1)
- Sequence (Q9NYK1 27-1049): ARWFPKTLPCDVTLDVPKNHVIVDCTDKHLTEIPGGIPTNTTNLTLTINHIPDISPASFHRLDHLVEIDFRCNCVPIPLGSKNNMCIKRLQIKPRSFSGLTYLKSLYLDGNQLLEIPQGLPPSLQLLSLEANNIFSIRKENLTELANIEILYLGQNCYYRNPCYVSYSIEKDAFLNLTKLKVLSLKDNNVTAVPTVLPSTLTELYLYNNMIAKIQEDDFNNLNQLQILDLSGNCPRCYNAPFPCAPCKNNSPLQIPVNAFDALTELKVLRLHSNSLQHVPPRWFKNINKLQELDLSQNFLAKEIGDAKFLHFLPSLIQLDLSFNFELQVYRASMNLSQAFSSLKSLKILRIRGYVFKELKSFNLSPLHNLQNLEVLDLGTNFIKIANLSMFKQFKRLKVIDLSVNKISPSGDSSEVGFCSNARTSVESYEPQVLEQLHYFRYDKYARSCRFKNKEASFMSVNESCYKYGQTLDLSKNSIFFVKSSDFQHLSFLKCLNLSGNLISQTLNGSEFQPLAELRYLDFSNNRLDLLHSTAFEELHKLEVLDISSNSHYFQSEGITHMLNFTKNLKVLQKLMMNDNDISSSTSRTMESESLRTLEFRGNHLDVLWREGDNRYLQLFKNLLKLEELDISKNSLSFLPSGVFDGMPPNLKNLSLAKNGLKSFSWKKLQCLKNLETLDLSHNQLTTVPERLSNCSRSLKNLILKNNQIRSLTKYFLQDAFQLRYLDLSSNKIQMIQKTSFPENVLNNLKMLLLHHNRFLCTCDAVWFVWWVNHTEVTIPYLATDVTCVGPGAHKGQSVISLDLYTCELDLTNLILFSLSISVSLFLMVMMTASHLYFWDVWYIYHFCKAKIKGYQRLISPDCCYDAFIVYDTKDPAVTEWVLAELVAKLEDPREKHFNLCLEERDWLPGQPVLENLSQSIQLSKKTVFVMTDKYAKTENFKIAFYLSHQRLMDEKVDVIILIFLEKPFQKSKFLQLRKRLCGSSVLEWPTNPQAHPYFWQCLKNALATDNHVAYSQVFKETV
- Experiment notes: HEK293-Blue-hTLR-7 cells assay (SEAP reporter)
- Assay type: cell-based
- Measurement setup: HEK293-Blue-hTLR-7 cells, SEAP reporter, 20 hrs; prodrug; read-out: HEK293-hTLR-7 EC50 (Prodrug)
- From the text: HEK293-Blue-hTLR-7 Cells Assay: A stable HEK293-Blue-hTLR-7 cell line was purchased from InvivoGen (Cat.#: hkb-htlr7, San Diego, Calif., USA). These cells were designed for studying the stimulation of human TLR7 by monitoring the activation of NF-κB. A SEAP (secreted embryonic alkaline phosphatase) reporter gene was placed under the control of the IFN-β minimal promoter fused to five NF-κB and AP-1-binding sites. […]
Result type: pEC50
Units for pEC50: none; it is -log10 of a concentration expressed in mol/L.

CCN(C)C(=O)n1c(=O)n(Cc2ccc(F)cc2)c2nc(S(=N)(=O)CC)nc(N)c21 (single isomer, unassigned) [Example 46-A]    4.34

## Input Quote pEC50 reported for CCCN(C)C(=O)n1c(=O)n(Cc2ccccc2)c2nc(S(=N)(=O)CCC)nc(N)c21 (stereo not shown) [Example 1] please.
## Output 4.30

## Input Quote pEC50 reported for CCN(C)C(=O)n1c(=O)n(Cc2ccc(Br)cc2)c2nc(S(=N)(=O)CC)nc(N)c21 (single isomer, unassigned) [Example 48-A] please.
## Output 4.74

## Input Quote pEC50 reported for CCCS(=N)(=O)c1nc(N)c2c(n1)n(Cc1ccccc1)c(=O)n2C(=O)N(C)C(C)C (stereo not shown) [Example 10] please.
## Output 4.16

## Input Quote pEC50 reported for CCN(C)C(=O)n1c(=O)n(Cc2ccc(F)cc2)c2nc(S(=N)(=O)CC)nc(N)c21 (single isomer, unassigned) [Example 46-B] please.
## Output 4.34

## Input Quote pEC50 reported for CCN(C)C(=O)n1c(=O)n(Cc2ccc(C)cc2)c2nc([S@@](=N)(=O)CC)nc(N)c21 (stereo in doubt) [Example 44-B] please.
## Output 4.01
